test system: A-431; experiment: Cytotoxicity against human A431 cells after 48 hrs by trypan blue test; type: functional, cell-based; details: A-431, 48 h
observedProperty: pEC50
One number for each entry, as −log10 of the molar value.

Worked examples follow.
Ask: Reported pEC50, compound CC[C@H]1N[C@H]2C[C@@]3(C(=O)N(OC)c4ccccc43)[C@H]3C[C@@H]1[C@@H]2CO3 [GELSEDINE] : ____
Result: 6.46

Ask: Try the compound `CCC1=N[C@H]2C[C@@]3(C(=O)N(OC)c4ccccc43)[C@@H]3OC[C@H]2[C@@]1(O)[C@H]3OC(C)=O`
Result: 4.44

Ask: Try the compound CC[C@H]1N[C@H]2C[C@@]3(C(=O)N(OC)c4cc(OC)ccc43)[C@H]3C[C@@H]1[C@@H]2CO3 [GELSEMICINE]
Result: 6.12

Ask: Next up: `CCC1=N[C@H]2C[C@@]3(C(=O)N(OC)c4ccccc43)[C@@H]3OC[C@H]2[C@H]1[C@H]3OC(C)=O`
Result: 6.60

Give pEC50 for each of the items listed below.
1. CCC1=N[C@H]2C[C@@]3(C(=O)N(OC)c4ccccc43)[C@H]3C[C@@H]1[C@@H]2CO3 [GELSENICINE]
2. CCC1=N[C@H]2C[C@@]3(C(=O)N(OC)c4ccccc43)[C@@H]3OC[C@H]2[C@@]1(O)[C@H]3O

Result:
[4.43, 5.89]
